- PROTOCOL: NCI Yeast Anticancer Drug Screen. Data for the rad50 strain (AID 155);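 further: 0% = growth of vehicle-only cultures of the same strain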
- TEST PARAMETERS: S. cerevisiae rad50 strain growth inhibition; at 50.0 µM
About 79,000 compounds went through this panel and 15% of them were active in at least one assay; those are over-represented in the sample as a whole. The source made the active and inactive calls. No stated cut-off is given here; in the data, active means growth inhibition above about 70%; inactive means the rest.
Write down one outcome, taken from 1.0 for active, 0.0 for inactive

* O=C(O)CCC(=O)Nc1ccc(S(=O)(=O)Nc2nccs2)cc1 | 0.0
* O=C(O)CN(CC(=O)O)CC(=O)O | 0.0
* COc1ccc(-c2c(N)nc(=S)[nH]c2C(=O)O)cc1 | 0.0

Challenge: So what was the verdict on NC1(c2ccccc2)CON=C(c2ccccc2)C1 (stereo not given) in this test?
Response given: 0.0

Challenge: Do the same for "N#Cc1[nH]nc2nc[nH]c(=O)c12" please
Response given: 0.0

Challenge: Now try "COC(=O)CCC(=O)Nc1ccccc1C(F)(F)F" .
Response given: 0.0

Challenge: Then what about the compound "CSc1ccc2c(cc1=O)[C@@H](NC(=O)c1ccc([N+](=O)[O-])cc1)CCc1cc(O)c(O)c(O)c1-2" ?
Response given: 0.0

Challenge: Next compound up: "CC(=O)CC(=O)NC(C)(C)C"
Response given: 0.0
